experimentSummary: BSK_3C_uPAR: BioMAP Diversity Plus: 3C Assay for Urokinase-type plasminogen activator receptor (uPAR) Biomarker Activity (AID 2282998)
conditionInfo: BioMAP 3C HUVEC, uPAR biomarker ELISA; actives raise or lower the signal
Active and inactive are the calls of the source. The calls were made as follows: active = hit-call score of the fitted dose curve at least 0.9, where 1 is the maximum; inactive = score below 0.9.
Pick from active, inactive when you respond.

Study these solved cases before continuing.
Enquiry: GET /call?item= `Nc1nc(N)nc(NC2CC2)n1` returns the recorded outcome of this test.
Return: inactive

Enquiry: For `CCOC(=O)COc1cc(-c2nn(C)c(OC(F)F)c2Cl)c(F)cc1Cl` , what call appears in the results of this test?
Return: inactive

Enquiry: For CC(C1CC1)C(O)(Cn1cncn1)c1ccc(Cl)cc1 (stereo not drawn) , what call appears in the results of this test?
Return: inactive

Enquiry: Write down the call the test reported for this compound. Item: COP(=O)(NC(C)=O)SC (stereo not drawn)
Return: inactive

Enquiry: Status in this test for `CCOP(=S)(OCC)Oc1ccc2c(C)c(Cl)c(=O)oc2c1` ?
Return: inactive

Enquiry: Dear colleague, could you share the recorded outcome for `CCCCN(CC)c1c([N+](=O)[O-])cc(C(F)(F)F)cc1[N+](=O)[O-]` when you have a moment?
Return: inactive

Further cases:
Enquiry: For `CN(C)[C@@H]1C(=O)C(C(N)=O)=C(O)[C@@]2(O)C(=O)C3=C(O)c4c(O)cccc4[C@@](C)(O)[C@H]3[C@H](O)[C@@H]12` , which call appears in the assay record?
Return: inactive

Enquiry: Recorded test outcome, item CC(Oc1cccc(Cl)c1)C(=O)O (stereo not drawn)
Return: inactive

Enquiry: Lab log entry: `CCCCSP(=O)(SCCCC)SCCCC` — outcome as called in the assay?
Return: active

Enquiry: Given `CN1COCN(Cc2cnc(Cl)s2)C1=N[N+](=O)[O-]` , state the outcome it received in this test.
Return: inactive
